target: human TLR7 (Homo sapiens); assay: TLR7 inhibition reporter assay (HEK-Blue SEAP); conditions: HEK-Blue cells overexpressing human TLR7, stimulated with gardiquimod 7.5 μM, 22 hour incubation
Sequence (Q9NYK1 27-1049): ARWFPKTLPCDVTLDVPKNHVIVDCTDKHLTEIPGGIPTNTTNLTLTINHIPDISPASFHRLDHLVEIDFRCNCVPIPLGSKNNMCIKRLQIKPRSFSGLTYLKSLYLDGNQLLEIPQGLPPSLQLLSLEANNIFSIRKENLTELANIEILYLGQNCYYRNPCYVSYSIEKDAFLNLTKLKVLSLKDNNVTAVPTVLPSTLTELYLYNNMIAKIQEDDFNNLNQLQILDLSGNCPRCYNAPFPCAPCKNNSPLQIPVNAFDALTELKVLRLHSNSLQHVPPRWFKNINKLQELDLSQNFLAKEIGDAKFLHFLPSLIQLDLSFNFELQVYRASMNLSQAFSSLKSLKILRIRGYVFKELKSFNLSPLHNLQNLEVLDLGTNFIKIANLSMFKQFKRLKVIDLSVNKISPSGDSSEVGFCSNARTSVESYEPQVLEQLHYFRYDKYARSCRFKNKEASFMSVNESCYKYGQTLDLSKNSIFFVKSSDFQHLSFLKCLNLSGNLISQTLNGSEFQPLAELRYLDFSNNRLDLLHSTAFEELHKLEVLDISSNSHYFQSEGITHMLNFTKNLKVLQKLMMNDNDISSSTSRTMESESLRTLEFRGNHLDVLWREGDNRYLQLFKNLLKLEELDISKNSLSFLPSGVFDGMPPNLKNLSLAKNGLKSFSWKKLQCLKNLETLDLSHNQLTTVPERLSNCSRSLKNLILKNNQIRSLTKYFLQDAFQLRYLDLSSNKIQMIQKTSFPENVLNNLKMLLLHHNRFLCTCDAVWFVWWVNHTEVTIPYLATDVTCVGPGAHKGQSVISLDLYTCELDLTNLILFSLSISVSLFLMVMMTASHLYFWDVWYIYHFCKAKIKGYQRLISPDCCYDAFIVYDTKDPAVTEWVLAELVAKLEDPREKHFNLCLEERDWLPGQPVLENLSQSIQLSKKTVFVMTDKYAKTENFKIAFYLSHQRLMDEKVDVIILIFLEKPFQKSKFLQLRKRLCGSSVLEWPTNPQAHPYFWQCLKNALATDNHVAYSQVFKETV
pIC50: −log10 of the molar value.

| MOLECULE | pIC50 |
| --- | --- |
| Cc1cc2c(C3CCC(NCCS(C)(=O)=O)CC3)n[nH]c2cc1-c1cc(C)c2ncnn2c1 (centres unmarked) [Example 30] | 7.82 |
| Cc1cc2c(C3CCCNC3)n[nH]c2cc1-c1cc(C)c2ncnn2c1 (centres unmarked) [Example 24] | 7.80 |
| Cc1cc(-c2cc(C)c3ncnn3c2)cc2[nH]nc(C3CCNCC3)c12 [Example 27] | 8.18 |
| Cc1cc2c(OC3CCN(C(=O)CN(C)C)CC3)n[nH]c2cc1-c1cc(C)c2ncnn2c1 [Example 170] | 7.88 |
| Cc1cc2c(C3CCC(NCC(=O)N(C)C)CC3)n[nH]c2cc1-c1cc(C)c2ncnn2c1 (single isomer, unassigned) [Example 28] | 7.91 |
| Cc1cc2c(C3CCCN(C(=O)CN(C)C)C3)n[nH]c2cc1-c1cc(C)c2ncnn2c1 (centres unmarked) [Example 56] | 7.91 |
| CCc1cc2c(C3CCN(C4COC4)CC3)n[nH]c2cc1-c1cc(C)c2ncnn2c1 [Example 89] | 8.08 |
| Cc1cc(-c2cc3[nH]nc(C4CCC(N5CCC(S(C)(=O)=O)C5)CC4)c3cc2C(C)C)cn2ncnc12 (single isomer, unassigned) [Example 212] | 8.09 |

* * *

Biological target: human TLR8 (Homo sapiens)
Sequence (Q9NR97 27-1041): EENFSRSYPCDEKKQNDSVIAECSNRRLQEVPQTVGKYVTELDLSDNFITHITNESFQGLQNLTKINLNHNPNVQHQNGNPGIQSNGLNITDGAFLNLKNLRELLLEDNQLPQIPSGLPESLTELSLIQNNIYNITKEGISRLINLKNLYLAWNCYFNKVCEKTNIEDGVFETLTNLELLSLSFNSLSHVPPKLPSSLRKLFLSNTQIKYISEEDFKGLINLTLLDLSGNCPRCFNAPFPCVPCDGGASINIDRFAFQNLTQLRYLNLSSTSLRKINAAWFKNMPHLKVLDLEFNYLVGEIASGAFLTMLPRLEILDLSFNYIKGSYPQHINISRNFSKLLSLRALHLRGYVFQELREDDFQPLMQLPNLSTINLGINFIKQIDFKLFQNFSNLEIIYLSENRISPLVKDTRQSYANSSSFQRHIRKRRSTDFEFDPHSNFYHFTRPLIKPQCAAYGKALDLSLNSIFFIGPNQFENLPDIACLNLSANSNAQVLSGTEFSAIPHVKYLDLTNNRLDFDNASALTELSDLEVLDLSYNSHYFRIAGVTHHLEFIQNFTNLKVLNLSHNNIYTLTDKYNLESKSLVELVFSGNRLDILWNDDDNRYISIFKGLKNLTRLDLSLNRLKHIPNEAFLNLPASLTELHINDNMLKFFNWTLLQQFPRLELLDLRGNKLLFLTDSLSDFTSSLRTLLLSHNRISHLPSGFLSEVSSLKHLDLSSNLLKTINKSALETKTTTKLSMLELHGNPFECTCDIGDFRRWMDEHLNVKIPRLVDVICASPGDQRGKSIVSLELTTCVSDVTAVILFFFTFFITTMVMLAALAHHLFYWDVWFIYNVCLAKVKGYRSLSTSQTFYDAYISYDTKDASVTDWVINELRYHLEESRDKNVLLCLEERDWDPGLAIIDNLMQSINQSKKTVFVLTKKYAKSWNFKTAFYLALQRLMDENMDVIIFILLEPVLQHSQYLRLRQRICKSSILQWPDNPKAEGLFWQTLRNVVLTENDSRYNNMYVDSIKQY
Assay: TLR8 inhibition reporter assay (HEK-Blue SEAP)
Details: HEK-Blue cells overexpressing human TLR8, stimulated with R848 15.9 μM, 22 hour incubation
Excerpt: TLR7/8/9 Inhibition Reporter Assays HEK-Blue™-cells (Invivogen) overexpressing human TLR7, TLR8 or TLR9 receptors were used for screening inhibitors of these receptors using an inducible SEAP (secreted embryonic alkaline phosphatase) reporter gene under the control of the IFN-β minimal promoter fused to five NF-κB and AP-1-binding sites. […]
pIC50: −log10 of the molar value.

| COMPOUND | TEST_SYSTEM | pIC50 |
| --- | --- | --- |
| COc1cc2c(C3CCNCC3)n[nH]c2cc1-c1cc(C)c2ncnn2c1 | human TLR8 (Homo sapiens) | 7.95 |
| Cc1cc2c(C3CCC(NC4COC4)CC3)n[nH]c2cc1-c1cc(C)c2ncnn2c1 (single isomer, unassigned) [Example 35] | human TLR8 (Homo sapiens) | 9.10 |
| COc1cc(-c2cc3[nH]nc(C4CCC(N(C)C)CC4)c3cc2C(C)C)cn2ncnc12 (single isomer, unassigned) [Example 140] | human TLR8 (Homo sapiens) | 10.00 |
| CCc1cc(-c2cc(C)c3ncnn3c2)cc2[nH]nc(OC3CCNCC3)c12 | human TLR8 (Homo sapiens) | 9.10 |
| Cc1cc(-c2cc3[nH]nc(C4CCC(N5CCOCC5)CC4)c3cc2C(C)C)cn2ncnc12 (stereo not drawn) [Example 133] | human TLR8 (Homo sapiens) | 9.70 |
| Cc1cc2c(C3CCC(NCC(=O)N(C)C)CC3)n[nH]c2cc1-c1cc(C)c2ncnn2c1 (single isomer, unassigned) [Example 29] | human TLR8 (Homo sapiens) | 9.05 |

Origin of values: patent US12172995B2
